target: Cytochrome P450 3A4 (Homo sapiens, UniProt P08684)
Sequence (P08684 whole entry): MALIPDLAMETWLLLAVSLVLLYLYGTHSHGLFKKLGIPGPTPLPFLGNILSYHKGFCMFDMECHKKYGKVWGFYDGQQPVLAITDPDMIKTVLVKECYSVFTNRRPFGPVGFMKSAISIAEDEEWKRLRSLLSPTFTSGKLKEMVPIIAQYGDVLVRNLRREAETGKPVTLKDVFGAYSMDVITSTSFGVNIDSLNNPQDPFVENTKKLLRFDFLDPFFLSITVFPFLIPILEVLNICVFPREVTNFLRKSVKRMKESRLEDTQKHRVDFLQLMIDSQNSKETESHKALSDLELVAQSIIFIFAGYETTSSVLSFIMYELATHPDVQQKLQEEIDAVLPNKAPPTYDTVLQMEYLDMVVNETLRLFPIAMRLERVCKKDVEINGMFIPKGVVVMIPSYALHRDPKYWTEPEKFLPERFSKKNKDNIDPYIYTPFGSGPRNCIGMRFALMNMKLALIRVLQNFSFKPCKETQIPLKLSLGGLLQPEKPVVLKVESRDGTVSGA
MEASURE: pIC50
Note on units: pIC50 is unitless, being -log10 of a concentration expressed in mol/L.

Note to self: pIC50 of COC(=O)N(NC(=O)c1c(OC)c(-c2ccccc2)nc2ccccc12)c1ccccc1 with Cytochrome P450 3A4 (Homo sapiens, UniProt P08684) was 4.92

----------
Quick list: Emax per entry.
target: PXR (NR1I2) (Homo sapiens, UniProt O75469); assay: Increase in human PXR activation expressed in CHO cells relative to rifampicin; format: cell-based; details: CHO cells expressing human PXR, read-out: Activity
Sequence (O75469 whole entry): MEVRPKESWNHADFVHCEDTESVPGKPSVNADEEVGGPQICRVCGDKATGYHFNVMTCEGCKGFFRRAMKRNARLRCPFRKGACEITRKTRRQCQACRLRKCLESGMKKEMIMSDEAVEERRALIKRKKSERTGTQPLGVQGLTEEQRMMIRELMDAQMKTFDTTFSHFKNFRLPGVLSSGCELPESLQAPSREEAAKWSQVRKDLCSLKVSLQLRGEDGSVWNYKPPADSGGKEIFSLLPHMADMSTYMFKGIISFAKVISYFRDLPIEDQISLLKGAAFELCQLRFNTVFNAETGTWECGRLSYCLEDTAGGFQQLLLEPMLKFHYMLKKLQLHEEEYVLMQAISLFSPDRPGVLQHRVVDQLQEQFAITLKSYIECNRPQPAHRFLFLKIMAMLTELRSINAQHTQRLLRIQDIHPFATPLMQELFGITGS
Your answer is read as %, so omit the unit and give the number.

Illustrative cases are given below, each with its answer.
COC(=O)N(NC(=O)c1c(OC)c(-c2ccccc2)nc2ccccc12)c1ccccc1
49
COC(=O)N(NC(=O)c1c(N)c(-c2ccccc2)nc2ccccc12)c1ccccc1
64
COC(=O)N(NC(=O)c1cc(-c2ccccc2)nc2ccccc12)c1ccccc1
44
COC(=O)N(NC(=O)c1c(OC)c(-c2ccccc2)nc2c(F)cccc12)c1ccccc1
75
CC[C@H](NC(=O)c1c(O)c(-c2ccccc2)nc2ccccc12)c1ccccc1
62
COC(=O)N(NC(=O)c1c(OC)c(-c2cccc(F)c2)nc2ccccc12)c1ccccc1
69

According to the records, this compound COC(=O)N(NC(=O)c1c(OC)c(-c2ccccc2)nc2c(Br)cccc12)c1ccccc1 displays Emax of 88

According to the records, this compound COC(=O)N(NC(=O)c1c(OC)c(-c2ccccc2)nc2ccc(F)cc12)c1ccccc1 displays Emax of 62

According to the records, this compound COC(=O)N(NC(=O)c1c(OC)c(-c2ccccc2)nc2c(C#N)cccc12)c1ccccc1 displays Emax of 87

Provenance of the data: ChEMBL document CHEMBL1139722
